- Tested on: HEK-293T
- method: Multiplex assay against HEK293T
- Type: toxicity, cell-based
- protocol_conditions: human, 12 h, 10 µM, compound concentration 10 uM, replicate 1
Would you mind telling me the reported Population Healthy Nuclei (%) of each entry?
Return type: number; implicit unit %.

// lookup Population Healthy Nuclei (%) | system=HEK-293T | key= CC(C)c1cc(Nc2nc(N3CCC[C@H](N)C3)ncc2C(N)=O)cc(C(C)C)n1
6

Can you handle Cc1c(Nc2ccc(S(=O)(=O)N3CCN(C)CC3)cc2F)nc2ccc(Nc3cnn(C4CC4)c3)cn2c1=O next?
73

Can you handle c1ccc(-c2oc3ncnc(NC[C@@H]4CCCO4)c3c2-c2ccccc2)cc1 next?
25

Can you handle CC[C@@H]1C(=O)N(C)c2cnc(Nc3ccc(C(=O)NC4CCN(C)CC4)cc3OC)nc2N1C1CCCC1 next?
59

Can you handle CN(c1cc(C(F)(F)F)nc(OCCC(=O)O)n1)c1cccc2c1CCC2 next?
49

Can you handle CC(C)[C@H](CO)Nc1nc(Nc2cccc(Cl)c2)c2ncn(C(C)C)c2n1 next?
27

Can you handle Cc1ccc(S(=O)(=O)NC2c3ccccc3Oc3ccccc32)cc1 next?
37

Can you handle C[C@@H](Oc1cc(-n2cnc3ccc(CN4CCN(C)CC4)cc32)sc1C(N)=O)c1ccccc1C(F)(F)F next?
11

Can you handle CC(/C=C1\SC(=S)N(CCCC(=O)Nc2ccc(C(=O)O)c(O)c2)C1=O)=C\c1ccccc1 next?
35

Can you handle Oc1cccc(-c2nc(N3CCOCC3)c3oc4ncccc4c3n2)c1 next?
8

Can you handle N#CCNC(=O)c1ccc(-c2ccnc(Nc3ccc(N4CCOCC4)cc3)n2)cc1 next?
54

Can you handle Cc1c(P(=S)(c2ccccc2)c2ccccc2)n2ccccc2[n+]1C/C=C/c1ccccc1.[Br-] next?
2

Can you handle CC(Cc1ccc(O)c(O)c1)C(C)Cc1ccc(O)c(O)c1 (configuration not stated) [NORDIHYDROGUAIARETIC ACID] next?
49

Can you handle CC[C@@]1(O)C(=O)OCc2c1cc1n(c2=O)Cc2cc3ccccc3nc2-1 next?
57

Can you handle Cl.NC[C@@H]1O[C@H](C23CC4CC(CC(C4)C2)C3)Cc2c1ccc(O)c2O next?
8

Can you handle CCCc1cc(C)[nH]c(=O)c1CNC(=O)c1cc(-c2ccc(N3CCN(C(C)C)CC3)nc2)cc2c1cnn2C(C)C next?
20

Can you handle NC(=O)c1ccc2nc(-c3ccc(C4(N)CCC4)cc3)c(-c3ccccc3)n2n1 next?
62

Can you handle CCOc1ccn(-c2ccc(F)cc2)c(=O)c1C(=O)Nc1ccc(Oc2ccnc(N)c2Cl)c(F)c1 next?
50

Can you handle Cl.Cn1c2c(c3ccc(Cl)c(Cl)c31)C(C#N)C1(CCNCC1)NC2=O (configuration not stated) next?
30

Can you handle CC[C@H](Nc1ncnc2[nH]cnc12)c1nc2cccc(F)c2c(=O)n1-c1ccccc1 next?
60

Can you handle CCOC(=O)CCNc1cc(N2CCc3ccccc3CC2)nc(-c2ccccn2)n1 next?
54

Can you handle CC(C)C[C@H](NC(=O)[C@H](Cc1ccccc1)NC(=O)CNC(=O)CNC(=O)[C@@H](N)Cc1ccc(O)cc1)C(=O)O next?
32

Can you handle CCCCCNC(=N)N/N=C/c1c[nH]c2ccc(OC)cc12.O=C(O)/C=C\C(=O)O [TEGASEROD MALEATE] next?
0

Can you handle CN1C(=O)[C@@H](NC(=O)c2cc3ccccc3[nH]2)N=C(c2ccccc2)c2ccccc21 [DEVAZEPIDE] next?
24

Can you handle Cc1ccc(NC(=O)Nc2cc(C(F)(F)F)ccc2F)cc1Nc1ccc2c(c1)NC(=O)/C2=C\c1ccc[nH]1 next?
68

Can you handle C=CC(=O)Nc1cc(-n2c(=O)ccc3cnc4ccc(-c5ccc(NS(C)(=O)=O)cc5)cc4c32)ccc1C next?
19

Can you handle N#Cc1cccc(C(=O)Nc2cc(-c3ccccc3)nn2-c2ccccc2)c1 next?
33
